Data origin: ChEMBL document CHEMBL1121484

# Target: Prothrombin (Bos taurus, UniProt P00735)
# Experimental protocol: Bovine thrombin concentration at which clotting time was prolonged 2x over the control.
# Condition context: read-out: I50
Reported property: IC50 (µM)

1: CC1CCN(C(=O)C(CCCN=C(N)N)NS(=O)(=O)c2ccc3c(c2)OCCCO3)CC1 (stereo unspecified)
2: CCC1CCN(C(=O)C(CCCNC(=N)N)NS(=O)(=O)c2ccc3c(c2)CCCC3)CC1 (stereo unspecified)
[Q] Param metric = IC50; output whichever of 1 , 2 has the minimum value. Could you answer with the label of the item you picked?
[A] 2

A: CCCCCNC(=O)C(CCCN=C(N)N)NS(=O)(=O)c1cccc2c(N(C)C)cccc12 (stereo unspecified)
B: CC1CCN(C(=O)C(CCCN=C(N)N)NS(=O)(=O)c2cccc3ccccc23)CC1 (stereo unspecified)
[Q] Param metric = IC50; output whichever of A , B has the minimum value. Could you answer with the label of the item you picked?
[A] B
(B: 4 µM, A: 130 µM)

A: CCOc1cc2ccc(S(=O)(=O)NC(CCCN=C(N)N)C(=O)N3CCC(CC)CC3)cc2cc1OCC (stereo unspecified)
B: CCC1CCN(C(=O)C(CCCN=C(N)N)NS(=O)(=O)c2ccc3cc(OC)c(OC)cc3c2)CC1 (stereo unspecified)
C: CCC1CCN(C(=O)C(CCCN=C(N)N)NS(=O)(=O)c2cccc3c(OC)cccc23)CC1 (stereo unspecified)
D: CN(C)c1cccc2c(S(=O)(=O)NC(CCCNC(=N)N)C(=O)NC3CC3)cccc12 (stereo unspecified)
[Q] Rank order required: IC50, descending. Labels, ranked as asked.
[A] D, A, C, B
(D: 500 µM, A: 5.5 µM, C: 0.6 µM, B: 0.15 µM)

====

# Target: Prothrombin (Bos taurus)
# Experimental protocol: Bovine thrombin concentration at which clotting time was prolonged 2x over the control.
# Condition context: read-out: I50
Reported property: IC50 (µM)

a: CCC1CCN(C(=O)C(CCCN=C(N)N)NS(=O)(=O)c2cccc3ccc(C)cc23)CC1 (stereo not given)
b: CCCNC(=O)C(CCCN=C(N)N)NS(=O)(=O)c1cccc2c(N(C)C)cccc12 (stereo not given)
c: CCC1CCN(C(=O)C(CCCN=C(N)N)NS(=O)(=O)c2cccc3c(C(=O)O)cccc23)CC1 (stereo not given)
d: COc1ccc2cc(S(=O)(=O)NC(CCCN=C(N)N)C(=O)N3CCC(C)CC3)cc(OC)c2c1 (stereo not given)
e: CCc1ccc2cc(S(=O)(=O)NC(CCCNC(=N)N)C(=O)N3CCC(CC)CC3)ccc2c1 (stereo not given)
[Q] Sort the 5 molecules by IC50; largest first, smallest last. Labels, ranked as asked.
[A] c, b, a, e, d
(c: 1000 µM, b: 15 µM, a: 1 µM, e: 0.7 µM, d: 0.075 µM)

====

# Target: Prothrombin (Bos taurus)
# Experimental protocol: Bovine thrombin concentration at which clotting time was prolonged 2x over the control.
# Condition context: read-out: I50
Reported property: IC50 (µM)

CCC1CCN(C(=O)C(CCCNC(=N)N)NS(=O)(=O)c2cccc3c2oc2ccccc23)CC1 (stereo not drawn)    0.2

I: CCC1CCN(C(=O)C(CCCNC(=N)N)NS(=O)(=O)c2cccc3c(C#N)cccc23)CC1 (stereo not drawn)
II: CCC1CCN(C(=O)C(CCCN=C(N)N)NS(=O)(=O)c2ccc3cc4c(cc3c2)OCCO4)CC1 (stereo not drawn)
[Q] Param metric = IC50; output whichever of I , II has the minimum value. Could you answer with the label of the item you picked?
[A] I
